testDetails: self-splicing fitness, log relative to wild type (ln ratio); higher = more splicing; Tetrahymena group I intron in knt gene, E. coli kanamycin selection, DiMSum; sequences stand for … in CUCUCU…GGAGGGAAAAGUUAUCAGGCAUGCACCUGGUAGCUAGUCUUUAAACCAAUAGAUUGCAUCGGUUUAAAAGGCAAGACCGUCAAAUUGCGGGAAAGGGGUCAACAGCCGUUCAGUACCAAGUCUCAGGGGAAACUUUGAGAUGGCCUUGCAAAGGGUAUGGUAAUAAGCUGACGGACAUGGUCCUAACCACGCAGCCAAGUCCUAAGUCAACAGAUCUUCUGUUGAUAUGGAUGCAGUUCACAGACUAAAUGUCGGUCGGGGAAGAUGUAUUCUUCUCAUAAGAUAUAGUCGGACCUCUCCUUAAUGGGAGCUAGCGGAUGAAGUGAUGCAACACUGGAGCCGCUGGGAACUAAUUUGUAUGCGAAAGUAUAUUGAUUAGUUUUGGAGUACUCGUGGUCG;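 also: selection with 25 µg/mL kanamycin versus none on LB agar overnight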
conditionLabel: 30 °C
So I've got a bunch of sequences here, and I need their self-splicing fitness (ln) values.
Hey, just send me the number, nothing else.

## Input Any idea what its self-splicing fitness (ln) is? The sequence is "GAAAAGCAAUAUUACGAGCG"
## Output -0.699

## Input Any idea what its self-splicing fitness (ln) is? The sequence is "AACUAGCAAUAUUACGAUAG"
## Output -3.19

## Input Any idea what its self-splicing fitness (ln) is? The sequence is "AGGUAGCAAUAUUACGGAAG"
## Output -3.61

## Input Any idea what its self-splicing fitness (ln) is? The sequence is "UUCAAGCAAUAUUACGUUCG"
## Output -1.96

## Input Any idea what its self-splicing fitness (ln) is? The sequence is "CGAAAGCAAUAUUACGUGAG"
## Output -0.204

## Input Any idea what its self-splicing fitness (ln) is? The sequence is "GAUAAGCAAUAUUACGUGAU"
## Output -2.21

## Input Any idea what its self-splicing fitness (ln) is? The sequence is "ACGAAGCAAUAUUACGGUGU"
## Output -2.71

## Input Any idea what its self-splicing fitness (ln) is? The sequence is "CCUGAGCAAUAUUACGCCAU"
## Output -3.2

## Input Any idea what its self-splicing fitness (ln) is? The sequence is "GGUUAGCAAUAUUACGCAUA"
## Output -0.622

## Input Any idea what its self-splicing fitness (ln) is? The sequence is "GUUAAGCAAUAUUACGCGUC"
## Output -3.23

## Input Any idea what its self-splicing fitness (ln) is? The sequence is "GUGAAGCAAUAUUACGCGUA"
## Output -0.298

## Input Any idea what its self-splicing fitness (ln) is? The sequence is "GGACAGCAAUAUUACGACCA"
## Output -1.46

## Input Any idea what its self-splicing fitness (ln) is? The sequence is "GAUUAGCAAUAUUACGGCCC"
## Output -0.175

## Input Any idea what its self-splicing fitness (ln) is? The sequence is "CGGCAGCAAUAUUACGGGGG"
## Output -3

## Input Any idea what its self-splicing fitness (ln) is? The sequence is "GGAAAGCAAUAUUACGAGUU"
## Output -1.86

## Input Any idea what its self-splicing fitness (ln) is? The sequence is "ACUCAGCAAUAUUACGAGGC"
## Output -3.27

## Input Any idea what its self-splicing fitness (ln) is? The sequence is "CAGUAGCAAUAUUACGGCCG"
## Output -0.034

## Input Any idea what its self-splicing fitness (ln) is? The sequence is "CCUCAGCAAUAUUACGGGAA"
## Output -2.4

## Input Any idea what its self-splicing fitness (ln) is? The sequence is "UGAAAGCAAUAUUACGUAAG"
## Output -0.503

## Input Any idea what its self-splicing fitness (ln) is? The sequence is "AGAAAGCAAUAUUACGUUUU"
## Output -3.84

## Input Any idea what its self-splicing fitness (ln) is? The sequence is "CUCUAGCAAUAUUACGCUCA"
## Output -1.32

## Input Any idea what its self-splicing fitness (ln) is? The sequence is "GAGCAGCAAUAUUACGCUAU"
## Output -2.73

## Input Any idea what its self-splicing fitness (ln) is? The sequence is "CUGAAGCAAUAUUACGGCCG"
## Output -0.134

## Input Any idea what its self-splicing fitness (ln) is? The sequence is "GCAAAGCAAUAUUACGUAUC"
## Output -2.35

## Input Any idea what its self-splicing fitness (ln) is? The sequence is "UAGUAGCAAUAUUACGGCCC"
## Output -2.09

## Input Any idea what its self-splicing fitness (ln) is? The sequence is "GGGUAGCAAUAUUACGGCGG"
## Output -2.35

## Input Any idea what its self-splicing fitness (ln) is? The sequence is "CCACAGCAAUAUUACGGCCA"
## Output -3.79

## Input Any idea what its self-splicing fitness (ln) is? The sequence is "UGCCAGCAAUAUUACGCCUA"
## Output -0.546

## Input Any idea what its self-splicing fitness (ln) is? The sequence is "CGAAAGCAAUAUUACGACAC"
## Output -2.69

## Input Any idea what its self-splicing fitness (ln) is? The sequence is "GUCAAGCAAUAUUACGCGGU"
## Output -3.16

## Input Any idea what its self-splicing fitness (ln) is? The sequence is "CCAGAGCAAUAUUACGGGGC"
## Output -3.91

## Input Any idea what its self-splicing fitness (ln) is? The sequence is "AGGUAGCAAUAUUACGGUCU"
## Output -0.498

## Input Any idea what its self-splicing fitness (ln) is? The sequence is "UCCUAGCAAUAUUACGAUGC"
## Output -2.85

## Input Any idea what its self-splicing fitness (ln) is? The sequence is "AACUAGCAAUAUUACGACGG"
## Output -2.21

## Input Any idea what its self-splicing fitness (ln) is? The sequence is "UCACAGCAAUAUUACGACAG"
## Output -2.15

## Input Any idea what its self-splicing fitness (ln) is? The sequence is "CGGAAGCAAUAUUACGAGGA"
## Output -1.95

## Input Any idea what its self-splicing fitness (ln) is? The sequence is "CACUAGCAAUAUUACGGAAU"
## Output -4

## Input Any idea what its self-splicing fitness (ln) is? The sequence is "UUUCAGCAAUAUUACGACAC"
## Output -2.24

## Input Any idea what its self-splicing fitness (ln) is? The sequence is "AGUGAGCAAUAUUACGUUCC"
## Output -4

## Input Any idea what its self-splicing fitness (ln) is? The sequence is "CCGUAGCAAUAUUACGACGA"
## Output -0.268

## Input Any idea what its self-splicing fitness (ln) is? The sequence is "GCCGAGCAAUAUUACGGUAG"
## Output -1.99

## Input Any idea what its self-splicing fitness (ln) is? The sequence is "ACAAAGCAAUAUUACGGGCU"
## Output -1.07

## Input Any idea what its self-splicing fitness (ln) is? The sequence is "UCUCAGCAAUAUUACGUAGC"
## Output -1.31

## Input Any idea what its self-splicing fitness (ln) is? The sequence is "AGGGAGCAAUAUUACGAGGA"
## Output -3.08

## Input Any idea what its self-splicing fitness (ln) is? The sequence is "AGGGAGCAAUAUUACGGAUG"
## Output -4

## Input Any idea what its self-splicing fitness (ln) is? The sequence is "UACUAGCAAUAUUACGCCAA"
## Output 0.284

## Input Any idea what its self-splicing fitness (ln) is? The sequence is "UGGUAGCAAUAUUACGUUGU"
## Output -4.52

## Input Any idea what its self-splicing fitness (ln) is? The sequence is "UAUAAGCAAUAUUACGUUGU"
## Output -4.3

## Input Any idea what its self-splicing fitness (ln) is? The sequence is "ACGCAGCAAUAUUACGUCUA"
## Output -1.55

## Input Any idea what its self-splicing fitness (ln) is? The sequence is "AAGUAGCAAUAUUACGACUC"
## Output 0.858

## Input Any idea what its self-splicing fitness (ln) is? The sequence is "CUCGAGCAAUAUUACGCAAC"
## Output -3.47

## Input Any idea what its self-splicing fitness (ln) is? The sequence is "GUUCAGCAAUAUUACGCUAA"
## Output -1.03

## Input Any idea what its self-splicing fitness (ln) is? The sequence is "UGACAGCAAUAUUACGAUAU"
## Output -2.67

## Input Any idea what its self-splicing fitness (ln) is? The sequence is "GACUAGCAAUAUUACGUGGC"
## Output -3.56

## Input Any idea what its self-splicing fitness (ln) is? The sequence is "UUGUAGCAAUAUUACGUGGG"
## Output -4.04

## Input Any idea what its self-splicing fitness (ln) is? The sequence is "GAAGAGCAAUAUUACGUUUG"
## Output -4.05

## Input Any idea what its self-splicing fitness (ln) is? The sequence is "UCCGAGCAAUAUUACGAGUG"
## Output -2.41

## Input Any idea what its self-splicing fitness (ln) is? The sequence is "CAUAAGCAAUAUUACGUCGA"
## Output -3.41

## Input Any idea what its self-splicing fitness (ln) is? The sequence is "AACUAGCAAUAUUACGUAGA"
## Output -1.76

## Input Any idea what its self-splicing fitness (ln) is? The sequence is "GCUCAGCAAUAUUACGGACC"
## Output -0.753

## Input Any idea what its self-splicing fitness (ln) is? The sequence is "CCAUAGCAAUAUUACGUGCG"
## Output -2.49

## Input Any idea what its self-splicing fitness (ln) is? The sequence is "GGUGAGCAAUAUUACGUUAC"
## Output -3.12

## Input Any idea what its self-splicing fitness (ln) is? The sequence is "CCCGAGCAAUAUUACGGUGG"
## Output -3.06

## Input Any idea what its self-splicing fitness (ln) is? The sequence is "AAUGAGCAAUAUUACGCUGU"
## Output -1.84

## Input Any idea what its self-splicing fitness (ln) is? The sequence is "UUUAAGCAAUAUUACGGACA"
## Output -0.552

## Input Any idea what its self-splicing fitness (ln) is? The sequence is "UUUGAGCAAUAUUACGUUUG"
## Output -3.29

## Input Any idea what its self-splicing fitness (ln) is? The sequence is "GCGAAGCAAUAUUACGCAAA"
## Output -3.14
